- assay system: N-terminally GST-tagged mTOR (Homo sapiens, UniProt P42345)
- Construct: truncated version: amino acids 1360-2549; purchased Life Technologies PR8683B
- Sequence (P42345 1360-2549): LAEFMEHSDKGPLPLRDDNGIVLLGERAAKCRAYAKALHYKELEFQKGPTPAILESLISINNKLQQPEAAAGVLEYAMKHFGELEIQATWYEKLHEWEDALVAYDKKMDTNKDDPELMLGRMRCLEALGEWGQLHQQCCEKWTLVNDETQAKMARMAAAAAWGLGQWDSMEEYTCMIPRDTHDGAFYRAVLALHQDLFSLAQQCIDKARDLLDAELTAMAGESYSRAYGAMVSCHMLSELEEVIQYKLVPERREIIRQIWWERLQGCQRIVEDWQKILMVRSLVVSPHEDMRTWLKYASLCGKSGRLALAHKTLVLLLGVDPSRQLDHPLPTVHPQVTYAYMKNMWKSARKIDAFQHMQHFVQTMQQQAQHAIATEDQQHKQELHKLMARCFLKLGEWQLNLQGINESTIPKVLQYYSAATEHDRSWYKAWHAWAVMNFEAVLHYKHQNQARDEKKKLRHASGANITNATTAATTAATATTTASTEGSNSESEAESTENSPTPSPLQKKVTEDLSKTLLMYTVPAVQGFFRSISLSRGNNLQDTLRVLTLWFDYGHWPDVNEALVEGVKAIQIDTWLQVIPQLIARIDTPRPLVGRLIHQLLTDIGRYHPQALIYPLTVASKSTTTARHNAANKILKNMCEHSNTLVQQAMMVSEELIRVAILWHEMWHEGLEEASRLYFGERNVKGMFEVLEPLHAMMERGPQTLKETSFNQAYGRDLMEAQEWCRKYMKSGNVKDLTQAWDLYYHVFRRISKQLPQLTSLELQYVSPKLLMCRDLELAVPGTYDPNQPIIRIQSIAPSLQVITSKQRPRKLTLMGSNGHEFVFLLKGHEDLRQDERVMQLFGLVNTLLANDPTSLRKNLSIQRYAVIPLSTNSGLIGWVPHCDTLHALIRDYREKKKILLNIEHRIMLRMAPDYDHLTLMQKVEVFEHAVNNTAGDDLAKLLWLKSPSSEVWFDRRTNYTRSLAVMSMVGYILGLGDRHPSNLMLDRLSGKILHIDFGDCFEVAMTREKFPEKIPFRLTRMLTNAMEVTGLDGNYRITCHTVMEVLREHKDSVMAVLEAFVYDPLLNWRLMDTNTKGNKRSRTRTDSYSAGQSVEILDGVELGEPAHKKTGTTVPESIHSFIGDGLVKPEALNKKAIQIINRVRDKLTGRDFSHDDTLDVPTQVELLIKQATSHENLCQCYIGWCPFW
- assay name: In vitro mTOR binding assay (LanthaScreen TR-FRET)
- condition details: LanthaScreen kinase binding, Tracer 314; read-out: mTOR IC50 (binding)
Readings of log10 of IC50 for the listed compounds
measurement type: log10 of IC50 (log10 of the value in nM)

>>> df
                                 cpd_smiles  measurement_type  observed
0  Nc1ncc(-c2cc(N3CCOCC3)nc(N3CCOCC3)n2)c(C(F)F)n1     log10 of IC50      2.19
1  Nc1ncc(-c2nc(N3CCOCC3)cc(N3CCOCC3)n2)c(C(F)F)n1     log10 of IC50      2.20
2  CC1(C)COCCN1c1nc(-c2cnc(N)cc2C(F)F)nc(N2CCOCC2)n1     log10 of IC50      0.48
3  C[C@@H]1COCCN1c1nc(-c2cnc(N)cc2C(F)F)nc(N2CCOC[C@H]2C)n1     log10 of IC50      1.34
4  C[C@H]1COC[C@H](C)N1c1nc(-c2cnc(N)cc2C(F)F)nc(N2[C@@H](C)COC[C@@H]2C)n1     log10 of IC50      1.51
5  Nc1ncc(-c2nc(N3CCOCC3)nc(N3CCSCC3)n2)c(C(F)F)n1     log10 of IC50      1.73
6  Nc1cc(C(F)F)c(-c2nc(N3CCOCC3)nc(N3CCSCC3)n2)cn1     log10 of IC50      1.11
7  Nc1cc(C(F)F)c(-c2cc(N3CCOCC3)nc(N3CCOCC3)n2)cn1     log10 of IC50      1.48

---

- assay system: N-terminally GST-tagged mTOR (Homo sapiens)
- Construct: truncated version: amino acids 1360-2549; purchased Life Technologies PR8683B
- assay name: In vitro mTOR binding assay (LanthaScreen TR-FRET)
- condition details: LanthaScreen kinase binding, Tracer 314; read-out: mTOR IC50 (binding)
pIC50: −log10 of the molar value.
measurement type: pIC50

>>> df
                                   molecule  measurement_type  observed
0  C[C@H]1COCCN1c1nc(-c2cnc(N)nc2C(F)F)nc(N2CCOC[C@@H]2C)n1 [Compound 7]             pIC50      7.15
1  Nc1cc(C(F)F)c(-c2nc(N3CCNCC3)nc(N3CCOCC3)n2)cn1 [Compound 12]             pIC50      6.27
2  Nc1ncc(-c2cc(N3CCOCC3)nc(N3C4CCC3COC4)n2)c(C(F)(F)F)n1 [reference compound]             pIC50      6.92
3  C[C@H]1COCCN1c1cc(-c2cnc(N)nc2C(F)(F)F)nc(N2CCOC[C@@H]2C)n1 [reference compound]             pIC50      6.54
4  C[C@H]1COCCN1c1cc(-c2cnc(N)nc2C(F)F)nc(N2CCOC[C@@H]2C)n1 [Compound 26]             pIC50      7.33
5  C[C@H]1COCCN1c1nc(-c2cnc(N)cc2C(F)F)cc(N2CCOCC2)n1 [Compound 31]             pIC50      7.82
6  Nc1ncc(-c2nc(N3CCOCC3)cc(N3CCOCC3)n2)c(C(F)(F)F)n1 [reference compound]             pIC50      5.72
7  Nc1cc(C(F)F)c(-c2cc(N3C4CCC3COC4)nc(N3C4CCC3COC4)n2)cn1 [Compound 22]             pIC50      7.74
